# Measured Target: GABA-A receptor
# Assay: 35S-TBPS binding assay (GABAA receptor binding ability assay)
# Assay Conditions: rat cerebral cortex cell membrane, 5 μM GABA, 2 nM 35S-TBPS; read-out: IC50 on inhibiting the TBPS binding activity, 35S-TBPS bindng assay
Experimental Readout: pIC50
Give bare numbers, as −log10 of the molar value.

Below: 4 molecules and their reported pIC50.
C[C@@H]1C[C@H](C(=O)Cn2ccc(C#N)n2)[C@@]2(C)CC[C@H]3[C@@H](CC[C@@H]4C[C@](C)(O)CC[C@@H]43)[C@H]12 | 8.09
CC[C@@H]1C[C@H](C(=O)Cn2ccc(C#N)n2)[C@@]2(C)CC[C@H]3[C@@H](CC[C@@H]4C[C@](C)(O)CC[C@@H]43)[C@H]12 | 7.79
Cc1nn(CC(=O)[C@H]2[C@H]3C[C@H]3[C@H]3[C@@H]4CC[C@@H]5C[C@](C)(O)CC[C@@H]5[C@H]4CC[C@@]32C)cc1C#N | 7.81
C[C@@]1(O)CC[C@H]2[C@H](CC[C@@H]3[C@@H]2CC[C@@]2(C)[C@H]3[C@@H]3C[C@@H]3[C@@H]2C(=O)Cn2cc(C(F)(F)F)cn2)C1 | 7.87

Exercise: What value of measured pIC50 is listed for C[C@@H]1C[C@H](C(=O)Cn2cc(C#N)c(Cl)n2)[C@@]2(C)CC[C@H]3[C@@H](CC[C@@H]4C[C@](C)(O)CC[C@@H]43)[C@H]12 ?
Solution: 8.17
